- measuredTarget: HRgpA-6H (Porphyromonas gingivalis) (UniProt P28784)
- assayProtocol: ELISA, FASEBA Fab on coated HRgpA-6H
Some binders, each annotated with its measured OD450nm.

binder: KB001 mouse Fab VL N54L (Fab, V domains shown) VH: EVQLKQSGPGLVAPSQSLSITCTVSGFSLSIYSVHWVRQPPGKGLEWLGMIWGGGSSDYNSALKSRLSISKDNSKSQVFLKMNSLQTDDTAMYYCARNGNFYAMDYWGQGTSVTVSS VL: QIVLTQSPAIMSASLGERVTMTCTASSSVSSSFLHWYQQKPGSSPQLWIYSTSLLASGVPARFSGSGSGTSYSLTISSMEAEDAATYYCHQYHHSPYIYTFGGGTKLEIK
OD450nm: 0.774
//
binder: KB001 mouse Fab VL S53C (Fab, V domains shown) VH: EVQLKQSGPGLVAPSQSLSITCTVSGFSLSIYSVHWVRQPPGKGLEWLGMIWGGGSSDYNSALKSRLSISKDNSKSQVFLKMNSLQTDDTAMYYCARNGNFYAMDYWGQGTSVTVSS VL: QIVLTQSPAIMSASLGERVTMTCTASSSVSSSFLHWYQQKPGSSPQLWIYSTCNLASGVPARFSGSGSGTSYSLTISSMEAEDAATYYCHQYHHSPYIYTFGGGTKLEIK
OD450nm: 0.697

The measurements presented in this section are drawn from patent US20230365662A1.
